Target: T1, murine GPC3-his protein (Sino Biological, Cat. No. 50989-M08B) (murine, UniProt Q8CFZ4 25-558)
T1 construct: Bought protein; also called murine GPC3 protein
T1 sequence (Q8CFZ4 25-558 limits assumed): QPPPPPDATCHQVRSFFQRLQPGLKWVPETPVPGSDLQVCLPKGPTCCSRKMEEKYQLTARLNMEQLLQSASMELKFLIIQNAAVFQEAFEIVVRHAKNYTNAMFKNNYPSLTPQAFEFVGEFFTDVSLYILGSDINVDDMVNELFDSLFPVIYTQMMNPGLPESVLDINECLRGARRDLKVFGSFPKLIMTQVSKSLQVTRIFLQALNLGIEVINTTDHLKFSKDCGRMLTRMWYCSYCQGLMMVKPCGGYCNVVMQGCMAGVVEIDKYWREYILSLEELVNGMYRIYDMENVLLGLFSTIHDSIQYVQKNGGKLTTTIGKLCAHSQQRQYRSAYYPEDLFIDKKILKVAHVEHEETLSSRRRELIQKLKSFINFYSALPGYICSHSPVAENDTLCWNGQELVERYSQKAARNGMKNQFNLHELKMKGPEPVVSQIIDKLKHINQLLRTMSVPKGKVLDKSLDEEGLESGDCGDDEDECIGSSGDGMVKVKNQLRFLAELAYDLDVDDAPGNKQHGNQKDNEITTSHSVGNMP
Assay: ELISA, coated murine GPC3-His;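 further: antigen coated on plates at 1 µg/mL, test antibody bound for 2 h at 37 °C, detected with HRP-conjugated secondary antibody and TMB substrate after acid stop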
OD450 at 1 nM antibody values by entry
Respond with the bare value in OD450 nm.

[[record]]
binder = "F1.42.8 human-murine chimeric antibody (antibody, human IgG1, kappa, V domains shown) VH: HVQLQQPGAELVKPGASVKLSCKASGYTFTSYWMHWVRQRPGQGLEWIEMIHPNSGSTNYNEKFKSKATLTVDKSSSTAYMQLSSLTSEDSAVYYCARGNYNSSLYAMDYWGQGTSVTVSS VL: DIQMTQTTSSLSASLGDRVTISCSASQGISNYLNWYQQKPDGTVKLLIYYASNLHSGVPSRFSGSGSGTAYSLTISNLEPEDIATYYCQQYSILPYTFGGGTKLEIKR"
measured_metric = "OD450 at 1 nM antibody"
unit_of_measure = "OD450 nm"
reported_measurement = 2.51


Next binder, please.
Indicate its recorded OD450 at 1 nM antibody; the binder in question is F2.154.1 human-murine chimeric antibody (antibody, human IgG1, kappa, V domains shown) VH: QVQLQQSGAELVRPGASVKLSCKASGYRFTDYEMHWVKQTPVHGLEWIGTIDPETGNTAYTQKFMDKATLTADKSSSTAYMELRSLTSEDSAVYYCTRGYSFTYWGQGTLATVSA VL: DVLMTQTPLSLPVSLGDQASISCRSSQNIVHSNGNTYLQWYLQKPGQSPKLLIFKVSNRFSGVPDRFSGSGSGTDFTLKISRVEAEDLGVYYCFQGSHVPFTFGTGTKLEIKR
0.05

Values from patent US20260116991A1
